# Tested on: seven human cancer cell lines
# TEST: Proliferation of seven human cancer cell lines (CCK8 kit), summary over the panel
# Assay type: cell-based
# ASSAY_CONDITIONS: U251, H1650, HepG2, MDA-MB-231, AGS, LOVO, OVCAR3, 24 h, CCK8, read-out: IC50 against 7 kinds of human cancer cells (range over the panel)
pIC50: −log10 of the molar value.
Would you kindly list pIC50 for each of these compounds?

C=CCc1ccc(O)c(-c2cc(CC=C)ccc2OCC[S+]([O-])CCCCN=C=S)c1 (centres unmarked) yielded pIC50 of 5.10 to 5.29

Measured pIC50 of C[S+]([O-])CCCCN=C=S (centres unmarked) : 4.65 to 4.73
